# Ratio over Background, IR per record follows
# STUDY_SYSTEM: T1, Insulin receptor prepared according to Bass et al., 1996 (human, UniProt P06213 28-956, limits assumed)
# T1 construct: extracellular domain; also called IR; soluble IR (Bass construct); not shown: immunoglobulin constant domains (Fc or lambda) of the Bass construct
Supply the numeric figure in ratio over background, leaving out any unit text.

See these solved cases before continuing.
| BINDER | UNIT_STRING | Ratio over Background, IR |
| --- | --- | --- |
| DYKDGLDHSDAVGVHLGFAWPAQARGRWEAGGLEDTWAGYDWLAAAGAP (not shown: rest of the phage display fusion (remainder of E-Tag, phage coat protein)) [40F-4-B1-IGFR] | ratio over background | 0.2 |
| DYKDQSGSGDFYDWLSRLIRGNGDGAAAGAP (not shown: rest of the phage display fusion (remainder of E-Tag, phage coat protein)) [20E2Bβ-3-C7-IR] | ratio over background | 1.5 |
| DYKDMNVFVSFYDAIDQLVCQRIGCAAAGAP (not shown: rest of the phage display fusion (remainder of E-Tag, phage coat protein)) [20E2A-4-G11-IGFR] | ratio over background | 1.3 |
| DYKDCSMAAVAEAGDDDDPFYHKLSELCQGSAAAGAP (not shown: rest of the phage display fusion (remainder of E-Tag, phage coat protein)) [B6Hα-3-F1-IR] | ratio over background | 1.3 |

Now look at this entry.
Quick one: give measured Ratio over Background, IR for DYKDAGSVTSFYDAMEQLVATGTSAAAAGAP (not shown: rest of the phage display fusion (remainder of E-Tag, phage coat protein)) [20E2A-3-A4-IGFR] 1.8
